assay: Solubility in gastric juice or intestinal juice model fluid (precipitation method using DMSO); assay type: physicochemical; conditions: pH 6.8, kinetic from dmso stock, 2nd fluid for Disintegration Test of Japanese Pharmacopoeia (pH: 6.8), room temperature, read-out: Solubility (μg/mL) 2nd fluid
I'd appreciate it if you could supply solubility at 24 h values for the items below.
Answers are plain numbers, in µg/mL.

The examples below pair each entry with its known result.
> print(dat)
                                smiles.data            property  value.observed
1  COc1cc(OCc2ccc(C(F)(F)F)nc2)ccc1-c1c(Br)nc(-c2ccc(F)nc2)n1C  solubility at 24 h             0.4
2  COc1cc(-c2cnc(C3CCC3)[nH]2)ccc1OCc1ncc(C(F)(F)F)cc1F  solubility at 24 h            33.5
3  COc1cc(OCc2ccc(C(F)(F)F)nc2)ccc1-c1nc(-c2ccc(F)nc2)[nH]c1C  solubility at 24 h             1.8
4  COc1cc(O[C@@H](C)c2ccc(C(F)(F)F)cc2)ccc1-c1[nH]c(-c2ccc(F)nc2)nc1Cl  solubility at 24 h            23.4
5  COc1cc(OCc2ccc(C(F)(F)F)cn2)ccc1-c1nc(-c2ccc(F)cn2)[nH]c1C  solubility at 24 h               1

The compound listed as "COc1cc(-c2c[nH]c(C3CCCCC3)n2)ccc1OCc1ccc(C(F)(F)F)nc1" shows solubility at 24 h equal to 9

----------
Assay: Solubility in gastric juice or intestinal juice model fluid (precipitation method using DMSO)
Format: physicochemical
Conditions: pH 1.2, simulated gastric fluid, kinetic from dmso stock, 1st fluid for Disintegration Test of Japanese Pharmacopoeia (pH: 1.2), room temperature, read-out: Solubility (μg/mL) 1st fluid
Protocol: Solubility in Gastric Juice or Intestinal Juice Model Fluid Measurement was performed by a precipitation method using DMSO. […] Subsequently, insoluble substances in each mixture were removed by filtration, and the UV absorption of each filtrate was measured. […]
Returns one of 1 or -1; 1 when solubility at 24 h is >= 50 µg/mL.

Take a look at these entries with their results.
> print(dat)
                                   compound  group
1  COc1cc(OCc2ccc(C(F)(F)F)nc2)ccc1-c1c(C)nc(-c2ccc(Cl)nc2)n1CC1CC1      1
2  COc1cc(OCc2ccc(C(F)(F)F)nc2)ccc1-c1nc(-c2ccc(F)cn2)[nH]c1C     -1
3  COc1cc(-c2[nH]c(C3CCC(F)(F)C3)nc2Cl)ccc1OCc1ncc(C(F)(F)F)cc1F (centres unmarked)      1

# check: solubility at 24 h of "COc1cc(OCc2ccncn2)ccc1-c1c[nH]c(-c2ccc(Cl)nc2)n1" is greater than or equal to 50 µg/mL
-1

# check: solubility at 24 h of COc1cc(-c2[nH]c(C3CCC(F)(F)C3)nc2Cl)ccc1OCc1ccc(C(F)(F)F)cn1 (centres unmarked) is greater than or equal to 50 µg/mL
1

# check: solubility at 24 h of "COc1cc(OCc2ccc(C(F)(F)F)nc2)ccc1-c1cn(C)c(-c2ccc(F)nc2)n1" is greater than or equal to 50 µg/mL
1

# check: solubility at 24 h of "COc1cc(OCc2ccc(C(F)(F)F)nc2)ccc1-c1c[nH]c(C2CCCCC2)n1" is greater than or equal to 50 µg/mL
1

----------
I'd appreciate it if you could supply solubility at 24 h values for the items below.
assay: Solubility in gastric juice or intestinal juice model fluid (precipitation method using DMSO); assay type: physicochemical; details: pH 1.2, simulated gastric fluid, kinetic from dmso stock, 1st fluid for Disintegration Test of Japanese Pharmacopoeia (pH: 1.2), room temperature, read-out: Solubility (μg/mL) 1st fluid
Give bare numbers, in µg/mL.

The examples below pair each entry with its known result.
> print(dat)
                                smiles.data            property   unit  value.observed
1  COc1cc(OCc2ccc(C(F)(F)F)cn2)ccc1-c1c[nH]c(-c2ccc(F)nc2)n1  solubility at 24 h  µg/mL            18.7
2  COc1cc(OCc2ccc(C(F)(F)F)cn2)ccc1-c1c[nH]c(-c2ccccn2)n1  solubility at 24 h  µg/mL            54.1
3  COc1cc(OCc2ccc(C(F)(F)F)cn2)ccc1-c1c[nH]c(-c2ccc(Cl)cn2)n1  solubility at 24 h  µg/mL             8.6

Could I get solubility at 24 h for every one of these entries?
1. COc1cc(OCc2ccc(C(F)(F)F)cn2)ccc1-c1nc(-c2ccc(F)nc2)[nH]c1Cl
2. COc1cc(OCc2ncccc2C#N)ccc1-c1cnc(C2CCC(F)(F)CC2)[nH]1
3. COc1cc(OCc2ncc(C(F)(F)F)cc2F)ccc1-c1cnc(C(C)C)[nH]1

1. 9.9
2. 84
3. 78.2

----------
property: melting point

The examples below pair each entry with its known result.
> print(dat)
                                   compound  value.observed
1  COc1cc(OCc2ncc(Cl)cc2C(F)(F)F)ccc1-c1[nH]c(-c2ccc(F)nc2)nc1Cl [Example 280]   156 to 158 °C
2  COc1cc(OCc2cnc(Cl)cn2)ccc1-c1nc(-c2ccc(Cl)nc2)[nH]c1Cl [Example 215]   232 to 234 °C
3  COc1cc(O[C@@H](C)c2ccc(C(F)(F)F)nc2)ccc1-c1[nH]c(-c2ccc(F)nc2)nc1Cl [Example 291]     74 to 97 °C
4  COc1cc(OCc2ncccc2C#N)ccc1-c1[nH]c(C2CCC(F)(F)CC2)nc1Cl [Example 185]   161 to 162 °C
5  COc1cc(OCc2ccc(C(F)(F)F)nc2)ccc1-c1c[nH]c(-c2ccc(F)cn2)n1 [Example 26]   176 to 178 °C

Could I get melting point for every one of these entries?
1. COc1cc(OCc2ccc(Br)cc2F)ccc1-c1c[nH]c(-c2ccc(F)nc2)n1 [Example 126]
2. Fc1ccc(-c2nc(Cl)c(-c3ccc(OCc4ncc(C(F)(F)F)cc4F)cc3F)[nH]2)cn1 [Example 370]
3. COc1cc(OCc2ncc(Cl)cc2F)ccc1-c1[nH]c(-c2ccc(Cl)nc2)nc1Cl [Example 249]
4. COc1cc(OCc2cncc(C(F)(F)F)c2)ccc1-c1[nH]c(-c2ccc(Cl)nc2)nc1Br [Example 252]
5. COc1cc(OC(C)c2ccc(C(F)(F)F)nc2)ccc1-c1cnc(-c2ccc(F)nc2)[nH]1 (stereo not shown) [Example 130]

["172 to 176 °C", "144 to 146 °C", "174 to 181 °C", "186 to 199 °C", "72 to 105 °C"]

----------
assay: Solubility in gastric juice or intestinal juice model fluid (precipitation method using DMSO); assay type: physicochemical; settings: pH 1.2, simulated gastric fluid, kinetic from dmso stock, 1st fluid for Disintegration Test of Japanese Pharmacopoeia (pH: 1.2), room temperature, read-out: Solubility (μg/mL) 1st fluid
property: solubility at 24 h (µg/mL)
Numbers only, in µg/mL.

The examples below pair each entry with its known result.
> print(dat)
                                   molecule            property   unit  value.observed
1  COc1cc(-c2cnc(-c3ccc(F)nc3)[nH]2)ccc1OCc1ccc(C(F)(F)F)nc1  solubility at 24 h  µg/mL            24.1
2  COc1cc(OCc2ncc(C(F)(F)F)cc2F)ccc1-c1[nH]c(C2CCC(F)(F)C2)nc1Cl (centres unmarked)  solubility at 24 h  µg/mL            99.1
3  COc1cc(OCc2ccc(C(F)(F)F)cn2)ccc1-c1nc(-c2ccc(Cl)nc2)n(CC2CC2)c1Cl  solubility at 24 h  µg/mL             104
4  COc1cc(-c2cnc(C(C)C)[nH]2)ccc1OCc1ncc(C(F)(F)F)cc1F  solubility at 24 h  µg/mL            74.8

Could I get solubility at 24 h for every one of these entries?
1. COc1cc(OCc2ncccc2C#N)ccc1-c1[nH]c(C2CCC(F)(F)CC2)nc1Br
2. COc1cc(OCc2ccc(C(F)(F)F)nc2)ccc1-c1cnc(C2CCC(F)(F)C2)[nH]1 (centres unmarked)
3. COc1cc(-c2c[nH]c(-c3ccc(Cl)nc3)n2)ccc1OCc1ccc(C(F)(F)F)cn1
4. COc1cc(OCc2ncccc2C(F)(F)F)ccc1-c1c[nH]c(-c2ccc(Cl)nc2)n1

1: 96.3; 2: 87.5; 3: 10; 4: 16.2

----------
property: melting point

The examples below pair each entry with its known result.
> print(dat)
                                smiles.data       property        value.observed
1  COc1cc(OCc2ncc(C(F)(F)F)cc2Cl)ccc1-c1cnc(-c2ccc(F)nc2)[nH]1  melting point         185 to 187 °C
2  COc1cc(-c2c[nH]c(C3CCCCC3)n2)ccc1OCc1ccc(C(F)(F)F)cn1  melting point         135 to 145 °C
3  COc1cc(OCc2ncc(C(F)(F)F)cc2F)ccc1-c1cnc(C(C)(C)C)[nH]1  melting point         141 to 144 °C
4  COc1cc(OCc2ccnc(C(F)(F)F)c2)ccc1-c1[nH]c(-c2ccc(F)nc2)nc1Br  melting point  223 to 225 °C (dec.)
5  Fc1ccc(-c2nc(Cl)c(-c3ccc(OCc4ncc(C(F)(F)F)cc4F)cc3)[nH]2)cn1  melting point         180 to 183 °C

Could I get melting point for every one of these entries?
1. COc1cc(OCc2ccc(C(F)(F)F)cn2)ccc1-c1c[nH]c(-c2ccc(F)cn2)n1
2. COc1cc(OCc2ncc(C)cc2C)ccc1-c1c[nH]c(-c2ccc(F)nc2)n1
3. COc1cc(OCc2ccc(C(F)(F)F)nc2)ccc1-c1cnc(C2CC(F)(F)C2)[nH]1
4. COc1cc(OCc2ccc(C(F)(F)F)cn2)ccc1-c1c(Cl)nc(-c2ccc(Cl)nc2)n1C
5. COc1cc(OCc2ncc(C(F)(F)F)cc2F)ccc1-c1cnc(C2CCC(F)(F)CC2)[nH]1
6. Cc1cc(O)ccc1-c1cnc(-c2ccc(F)nc2)[nH]1

1. 152 to 154 °C
2. 219 to 223 °C (dec.)
3. 167 to 169 °C
4. 133 to 135 °C
5. 105 to 110 °C
6. 218 to 220 °C
